Tested on: A375 multi-cell spheroids with HUVEC/MSC, viability
ASSAY NOTES: Anticancer human tumor A375 cell line growth inhibition [GQUAD];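 further: spheroids exposed to compounds for seven days before readout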
CONDITION: second compound 1 µM; first compound 0.0316 µM; active compounds read low
Description: DNA G-quadruplex Stabilizer Agents in Combinations in Complex Spheroids A high-throughput screen of multi-cell type tumor spheroids was designed to identify active combinations of DNA G-quadruplex stabilizer agents and targeted small molecules. […] Compounds. […] If the clinical Cmax for an agent had not been determined, the highest concentration tested was 10 microM. […]
MEASURE: viability, T/C (%)
Expressed in %, but write only the number.

// recorded viability, T/C for CCc1c2c(nc3ccc(O)cc13)-c1cc3c(c(=O)n1C2)COC(=O)[C@]3(O)CC + Cc1[nH]c2ccc(F)cc2c1-c1nc2c3cccnc3c3ncccc3c2[nH]1 : 16.4

// recorded viability, T/C for C#Cc1c(F)ccc2cc(O)cc(-c3ncc4c(N5CC6CCC(C5)N6)nc(OCC56CCCN5CC(F)C6)nc4c3F)c12 (stereo not drawn) + Cc1[nH]c2ccc(F)cc2c1-c1nc2c3cccnc3c3ncccc3c2[nH]1 : 113

// recorded viability, T/C for CC[C@@]1(O)C(=O)OCc2c1cc1n(c2=O)Cc2cc3c(CN(C)C)c(O)ccc3nc2-1 + Cc1[nH]c2ccc(F)cc2c1-c1nc2c3cccnc3c3ncccc3c2[nH]1 : 65.4

---

System: A375 multi-cell spheroids with HUVEC/MSC, viability
ASSAY NOTES: Anticancer human tumor A375 cell line growth inhibition [GQUAD];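 further: spheroids exposed to compounds for seven days before readout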
CONDITION: second compound 0.316 µM; first compound 0.1 µM; active compounds read low
Please go through the items and note down their viability, T/C.

// recorded viability, T/C for CC1COCCN1c1cc(C2(S(C)(=N)=O)CC2)nc(-c2ccnc3[nH]ccc23)n1 (stereo not drawn) + CN(C)c1ccc(Nc2c3ccc(NC(=O)CCN4CCCC4)cc3nc3cc(NC(=O)CCN4CCCC4)ccc23)cc1 : 101%

// recorded viability, T/C for CC(C)(O)C1CCC(Nc2ccc3ncc(-c4cccc(C(F)(F)F)c4)n3n2)CC1 (stereo not drawn) + CN(C)c1ccc(Nc2c3ccc(NC(=O)CCN4CCCC4)cc3nc3cc(NC(=O)CCN4CCCC4)ccc23)cc1 : 91.2%

// recorded viability, T/C for C#Cc1c(F)ccc2cc(O)cc(-c3ncc4c(N5CC6CCC(C5)N6)nc(OCC56CCCN5CC(F)C6)nc4c3F)c12 (stereo not drawn) + Cc1[nH]c2ccc(F)cc2c1-c1nc2c3cccnc3c3ncccc3c2[nH]1 : 104%

---

System: A375 multi-cell spheroids with HUVEC/MSC, viability
ASSAY NOTES: Anticancer human tumor A375 cell line growth inhibition [GQUAD];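 further: spheroids exposed to compounds for seven days before readout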
CONDITION: second compound 3.16 µM; first compound 0.1 µM; active compounds read low
MEASURE: viability, T/C

// recorded viability, T/C for CC(C)(O)C1CCC(Nc2ccc3ncc(-c4cccc(C(F)(F)F)c4)n3n2)CC1 (stereo not given) + Cc1[nH]c2ccc(F)cc2c1-c1nc2c3cccnc3c3ncccc3c2[nH]1 : 52.3%

// recorded viability, T/C for COc1ncnc(C2CC2)c1-c1ncc2cnn(Cc3ccc(-c4nc(C(F)(F)F)cn4C(C)C)cc3)c2n1 + Cc1cnc(CNC(=O)c2c(=O)c3ccc(N4CCCN(C)CC4)nc3n3c2sc2ccccc23)cn1 : 37.2%

// recorded viability, T/C for O=C(c1cc(Cc2n[nH]c(=O)c3ccccc23)ccc1F)N1CCN(C(=O)C2CC2)CC1 + Cc1[nH]c2ccc(F)cc2c1-c1nc2c3cccnc3c3ncccc3c2[nH]1 : 78.7%

// recorded viability, T/C for COc1ccc([C@@H](O)c2cc(-c3ncnc4cc(N5CCOCC5)ccc34)c(F)cc2Cl)nn1 + CN(C)c1ccc(Nc2c3ccc(NC(=O)CCN4CCCC4)cc3nc3cc(NC(=O)CCN4CCCC4)ccc23)cc1 : 99.3%

// recorded viability, T/C for COc1cc(C2c3cc4c(cc3C(OC3OC5COC(C)OC5C(O)C3O)C3COC(=O)C23)OCO4)cc(OC)c1O (stereo not given) + CN(C)c1ccc(Nc2c3ccc(NC(=O)CCN4CCCC4)cc3nc3cc(NC(=O)CCN4CCCC4)ccc23)cc1 : 103%

// recorded viability, T/C for CCCS(=O)(=O)Nc1ccc(F)c(C(=O)c2c[nH]c3ncc(-c4ccc(Cl)cc4)cc23)c1F + CN(C)c1ccc(Nc2c3ccc(NC(=O)CCN4CCCC4)cc3nc3cc(NC(=O)CCN4CCCC4)ccc23)cc1 : 14.8%

// recorded viability, T/C for C#Cc1c(F)ccc2cc(O)cc(-c3ncc4c(N5CC6CCC(C5)N6)nc(OCC56CCCN5CC(F)C6)nc4c3F)c12 (stereo not given) + CN(C)c1ccc(Nc2c3ccc(NC(=O)CCN4CCCC4)cc3nc3cc(NC(=O)CCN4CCCC4)ccc23)cc1 : 98.7%

// recorded viability, T/C for CC1COCCN1c1cc(C2(S(C)(=N)=O)CC2)nc(-c2ccnc3[nH]ccc23)n1 (stereo not given) + CN(C)c1ccc(Nc2c3ccc(NC(=O)CCN4CCCC4)cc3nc3cc(NC(=O)CCN4CCCC4)ccc23)cc1 : 95.8%

// recorded viability, T/C for Nc1ccn(C2OC(CO)C(O)C2(F)F)c(=O)n1 (stereo not given) + Cc1cnc(CNC(=O)c2c(=O)c3ccc(N4CCCN(C)CC4)nc3n3c2sc2ccccc23)cn1 : 20.9%

// recorded viability, T/C for C=CCn1c(=O)c2cnc(Nc3ccc(N4CCN(C)CC4)cc3)nc2n1-c1cccc(C(C)(C)O)n1 + CN(C)c1ccc(Nc2c3ccc(NC(=O)CCN4CCCC4)cc3nc3cc(NC(=O)CCN4CCCC4)ccc23)cc1 : 96.1%

---

System: A375 multi-cell spheroids with HUVEC/MSC, viability
ASSAY NOTES: Anticancer human tumor A375 cell line growth inhibition [GQUAD]; active = viability on the fitted dose curve at most 10% of control; inactive = the rest;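 further: spheroids exposed to compounds for seven days before readout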
CONDITION: second compound 0.0316 µM; first compound 0.316 µM
The reply should name one outcome from 1.0 = active, 0.0 = inactive

query: Query: recorded result category for O=c1[nH]cc(F)c(=O)[nH]1 + CN(C)c1ccc(Nc2c3ccc(NC(=O)CCN4CCCC4)cc3nc3cc(NC(=O)CCN4CCCC4)ccc23)cc1 in this test
result: 0.0

query: Query: recorded result category for CC(C)n1c(=O)n(C)c2cnc3cc(F)c(-c4ccc(OCCCN5CCCCC5)nc4)cc3c21 + Cc1cnc(CNC(=O)c2c(=O)c3ccc(N4CCCN(C)CC4)nc3n3c2sc2ccccc23)cn1 in this test
result: 0.0

query: Query: recorded result category for CCCS(=O)(=O)Nc1ccc(F)c(C(=O)c2c[nH]c3ncc(-c4ccc(Cl)cc4)cc23)c1F + Cc1[nH]c2ccc(F)cc2c1-c1nc2c3cccnc3c3ncccc3c2[nH]1 in this test
result: 1.0

---

Test system: A375 multi-cell spheroids with HUVEC/MSC, viability
ASSAY NOTES: Anticancer human tumor A375 cell line growth inhibition [GQUAD];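 further: spheroids exposed to compounds for seven days before readout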
CONDITION: second compound 3.16 µM; first compound 10 µM; active compounds read low
MEASURE: viability, T/C (%)
Expressed in %, but write only the number.

Given the compound O=C(NO)c1cnc(N2CCN(S(=O)(=O)c3ccc4ccccc4c3)CC2)nc1 + Cc1cnc(CNC(=O)c2c(=O)c3ccc(N4CCCN(C)CC4)nc3n3c2sc2ccccc23)cn1 and test system A375 multi-cell spheroids with HUVEC/MSC, viability, the measured viability, T/C is 0.15

Given the compound O=c1[nH]cc(F)c(=O)[nH]1 + Cc1cnc(CNC(=O)c2c(=O)c3ccc(N4CCCN(C)CC4)nc3n3c2sc2ccccc23)cn1 and test system A375 multi-cell spheroids with HUVEC/MSC, viability, the measured viability, T/C is 30.7

Given the compound COc1cc(C2c3cc4c(cc3C(OC3OC5COC(C)OC5C(O)C3O)C3COC(=O)C23)OCO4)cc(OC)c1O (stereo not drawn) + CN(C)c1ccc(Nc2c3ccc(NC(=O)CCN4CCCC4)cc3nc3cc(NC(=O)CCN4CCCC4)ccc23)cc1 and test system A375 multi-cell spheroids with HUVEC/MSC, viability, the measured viability, T/C is 18.8

---

Please go through the items and note down their viability, T/C.
Tested on: A375 multi-cell spheroids with HUVEC/MSC, viability
ASSAY NOTES: Anticancer human tumor A375 cell line growth inhibition [GQUAD];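 further: spheroids exposed to compounds for seven days before readout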
CONDITION: second compound 1 µM; first compound 0.0316 µM; active compounds read low
Expressed in %, but write only the number.

// recorded viability, T/C for CC(=O)O[C@H]1C(=O)[C@@]2(C)[C@H]([C@H](OC(=O)c3ccccc3)[C@]3(O)C[C@H](OC(=O)[C@H](O)[C@@H](NC(=O)c4ccccc4)c4ccccc4)C(C)=C1C3(C)C)[C@]1(OC(C)=O)CO[C@@H]1C[C@@H]2O + Cc1[nH]c2ccc(F)cc2c1-c1nc2c3cccnc3c3ncccc3c2[nH]1 : 68.5

// recorded viability, T/C for O=C(c1cc(Cc2n[nH]c(=O)c3ccccc23)ccc1F)N1CCN(C(=O)C2CC2)CC1 + CN(C)c1ccc(Nc2c3ccc(NC(=O)CCN4CCCC4)cc3nc3cc(NC(=O)CCN4CCCC4)ccc23)cc1 : 97.1

// recorded viability, T/C for Cn1ncnc1[C@H]1c2n[nH]c(=O)c3cc(F)cc(c23)N[C@@H]1c1ccc(F)cc1 + Cc1cnc(CNC(=O)c2c(=O)c3ccc(N4CCCN(C)CC4)nc3n3c2sc2ccccc23)cn1 : 41.8

// recorded viability, T/C for CC(=O)O[C@H]1C(=O)[C@@]2(C)[C@H]([C@H](OC(=O)c3ccccc3)[C@]3(O)C[C@H](OC(=O)[C@H](O)[C@@H](NC(=O)c4ccccc4)c4ccccc4)C(C)=C1C3(C)C)[C@]1(OC(C)=O)CO[C@@H]1C[C@@H]2O + CN(C)c1ccc(Nc2c3ccc(NC(=O)CCN4CCCC4)cc3nc3cc(NC(=O)CCN4CCCC4)ccc23)cc1 : 87.5

// recorded viability, T/C for O=C(NO)c1cnc(N2CCN(S(=O)(=O)c3ccc4ccccc4c3)CC2)nc1 + Cc1[nH]c2ccc(F)cc2c1-c1nc2c3cccnc3c3ncccc3c2[nH]1 : 109

// recorded viability, T/C for O=c1[nH]cc(F)c(=O)[nH]1 + CN(C)c1ccc(Nc2c3ccc(NC(=O)CCN4CCCC4)cc3nc3cc(NC(=O)CCN4CCCC4)ccc23)cc1 : 108

// recorded viability, T/C for CC1COCCN1c1cc(C2(O)CC3CCC(C2)O3)c2cnn(-c3ccn[nH]3)c2n1 (stereo not given) + CN(C)c1ccc(Nc2c3ccc(NC(=O)CCN4CCCC4)cc3nc3cc(NC(=O)CCN4CCCC4)ccc23)cc1 : 97.9

// recorded viability, T/C for C#Cc1c(F)ccc2cc(O)cc(-c3ncc4c(N5CC6CCC(C5)N6)nc(OCC56CCCN5CC(F)C6)nc4c3F)c12 (stereo not given) + Cc1cnc(CNC(=O)c2c(=O)c3ccc(N4CCCN(C)CC4)nc3n3c2sc2ccccc23)cn1 : 42.6

// recorded viability, T/C for COc1ncnc(C2CC2)c1-c1ncc2cnn(Cc3ccc(-c4nc(C(F)(F)F)cn4C(C)C)cc3)c2n1 + Cc1[nH]c2ccc(F)cc2c1-c1nc2c3cccnc3c3ncccc3c2[nH]1 : 104

// recorded viability, T/C for COc1ncnc(C2CC2)c1-c1ncc2cnn(Cc3ccc(-c4nc(C(F)(F)F)cn4C(C)C)cc3)c2n1 + Cc1cnc(CNC(=O)c2c(=O)c3ccc(N4CCCN(C)CC4)nc3n3c2sc2ccccc23)cn1 : 36.2
